Assay: Cytotoxicity (FPV example)
Type: cell-based, feline
Conditions: cat, crfk cells; Table 7 (FPV); cell line for cytotoxicity not given
Can you tell me CC50 for the items I'm about to list?

For every item in the list below, what is its measured CC50?
1. Nc1nc2c(ncn2[C@@H](CO)OC(CO)CO)c(=O)[nH]1 [Acyclic diol-Guanosine, acyclic diol form of guanosine]
2. O=c1[nH]cnc2c1ncn2[C@@H](CO)OC(CO)CO [Acyclic diol-Inosine, acyclic diol form of inosine]
3. O=c1[nH]c(=O)c2ncn([C@@H](CO)OC(CO)CO)c2[nH]1 [Acyclic diol-Xanthosine, acyclic diol form of xanthosine]
4. Nc1nc2c(ncn2[C@@H](C=O)O[C@@H](C=O)CO)c(=O)[nH]1 [Dialdehyde-Guanosine, dialdehyde form of guanosine]

["> 10 mM", "> 10 mM", "> 10 mM", "> 6 mM"]

----------
Tested on: Classical Swine Fever Virus (CSFV)
Assay: microbe, parasite or virus in culture
Type: cell-based
Can you tell me SI (selectivity index) for the items I'm about to list?

Past entries and their recorded results:
> print(dat)
                                   compound           assay.readout  meas.value
1  O=C[C@@H](CO)O[C@H](C=O)n1cnc2c(=O)[nH]c(=O)[nH]c21 [Dialdehyde-Xanthosine, dialdehyde form of xanthosine]  SI (selectivity index)      > 63.8
2  Nc1nc2c(ncn2[C@@H](C=O)O[C@@H](C=O)CO)c(=O)[nH]1 [Dialdehyde-Guanosine, dialdehyde form of guanosine]  SI (selectivity index)      > 36.1
3  O=c1[nH]c(=O)c2ncn([C@@H](CO)OC(CO)CO)c2[nH]1 [Acyclic diol-Xanthosine, acyclic diol form of xanthosine]  SI (selectivity index)       > 3.4
4  Nc1nc2c(ncn2[C@@H](CO)OC(CO)CO)c(=O)[nH]1 [Acyclic diol-Guanosine, acyclic diol form of guanosine]  SI (selectivity index)       > 2.8
5  O=C[C@@H](CO)O[C@H](C=O)n1cnc2c(=O)[nH]cnc21 [Dialdehyde-Inosine, dialdehyde form of inosine]  SI (selectivity index)      > 42.0

# evaluate next
Dear colleague, I am looking for the recorded SI (selectivity index) of the following compound: O=c1[nH]cnc2c1ncn2[C@@H](CO)OC(CO)CO [Acyclic diol-Inosine, acyclic diol form of inosine]
> 5.7

----------
Assay: Cytotoxicity (CAV example)
Format: cell-based, monkey
Details: monkey, vero cells; Table 5 (CAV); cell line for cytotoxicity not given
Assay Readout: CC50

Past entries and their recorded results:
> print(dat)
                                   compound  meas.value
1  O=c1[nH]c(=O)c2ncn([C@@H](CO)OC(CO)CO)c2[nH]1 [Acyclic diol-Xanthosine, acyclic diol form of xanthosine]     > 10 mM
2  Nc1nc2c(ncn2[C@@H](C=O)O[C@@H](C=O)CO)c(=O)[nH]1 [Dialdehyde-Guanosine, dialdehyde form of guanosine]      > 6 mM
3  O=c1[nH]cnc2c1ncn2[C@@H](CO)OC(CO)CO [Acyclic diol-Inosine, acyclic diol form of inosine]     > 10 mM

# evaluate next
Dear colleague, I am looking for the recorded CC50 of the following compound: Nc1nc2c(ncn2[C@@H](CO)OC(CO)CO)c(=O)[nH]1 [Acyclic diol-Guanosine, acyclic diol form of guanosine]
> 10 mM

----------
Test: Cytotoxicity (CDV example)
Format: cell-based, monkey
Conditions: monkey, vero cells; Table 6 (CDV); cell line for cytotoxicity not given
Can you tell me CC50 for the items I'm about to list?

> print(dat)
                                   compound  meas.value
1  O=c1[nH]c(=O)c2ncn([C@@H](CO)OC(CO)CO)c2[nH]1 [Acyclic diol-Xanthosine, acyclic diol form of xanthosine]     > 10 mM

For every item in the list below, what is its measured CC50?
1. O=c1[nH]cnc2c1ncn2[C@@H](CO)OC(CO)CO [Acyclic diol-Inosine, acyclic diol form of inosine]
2. Nc1nc2c(ncn2[C@@H](C=O)O[C@@H](C=O)CO)c(=O)[nH]1 [Dialdehyde-Guanosine, dialdehyde form of guanosine]
3. Nc1nc2c(ncn2[C@@H](CO)OC(CO)CO)c(=O)[nH]1 [Acyclic diol-Guanosine, acyclic diol form of guanosine]

> 10 mM
> 6 mM
> 10 mM

----------
Assay: in vitro
Assay Readout: CC50

> print(dat)
                                   molecule  meas.value
1  O=C[C@@H](CO)O[C@H](C=O)n1cnc2c(=O)[nH]cnc21 [Dialdehyde-Inosine, dialdehyde form of inosine]     > 10 mM

Dear colleague, I am looking for the recorded CC50 of the following molecule: O=C[C@@H](CO)O[C@H](C=O)n1cnc2c(=O)[nH]c(=O)[nH]c21 [Dialdehyde-Xanthosine, dialdehyde form of xanthosine]
> 10 mM

----------
Assay: in vitro
Conditions: dog, mdck
Can you tell me CC50 for the items I'm about to list?

> print(dat)
                                   compound  meas.value
1  O=c1[nH]c(=O)c2ncn([C@@H](CO)OC(CO)CO)c2[nH]1 [Acyclic diol-Xanthosine, acyclic diol form of xanthosine]     > 10 mM
2  O=c1[nH]cnc2c1ncn2[C@@H](CO)OC(CO)CO [Acyclic diol-Inosine, acyclic diol form of inosine]     > 10 mM

For every item in the list below, what is its measured CC50?
1. Nc1nc2c(ncn2[C@@H](C=O)O[C@@H](C=O)CO)c(=O)[nH]1 [Dialdehyde-Guanosine, dialdehyde form of guanosine]
2. Nc1nc2c(ncn2[C@@H](CO)OC(CO)CO)c(=O)[nH]1 [Acyclic diol-Guanosine, acyclic diol form of guanosine]

1. > 6 mM
2. > 10 mM

----------
Test: in vitro
Conditions: pig, pam cells
Assay Readout: CC50

Past entries and their recorded results:
> print(dat)
                                   compound  meas.value
1  Nc1nc2c(ncn2[C@@H](CO)OC(CO)CO)c(=O)[nH]1 [Acyclic diol-Guanosine, acyclic diol form of guanosine]     > 10 mM
2  Nc1nc2c(ncn2[C@@H](C=O)O[C@@H](C=O)CO)c(=O)[nH]1 [Dialdehyde-Guanosine, dialdehyde form of guanosine]      > 6 mM
3  O=c1[nH]c(=O)c2ncn([C@@H](CO)OC(CO)CO)c2[nH]1 [Acyclic diol-Xanthosine, acyclic diol form of xanthosine]     > 10 mM

# evaluate next
Dear colleague, I am looking for the recorded CC50 of the following compound: O=c1[nH]cnc2c1ncn2[C@@H](CO)OC(CO)CO [Acyclic diol-Inosine, acyclic diol form of inosine]
> 10 mM

----------
Assay: Cytotoxicity (CCoV example)
Type: cell-based, canine
Conditions: dog, a-72 cells; Table 4 (CCoV); cell line for cytotoxicity not given
Assay Readout: CC50

Past entries and their recorded results:
> print(dat)
                                   compound  meas.value
1  O=c1[nH]cnc2c1ncn2[C@@H](CO)OC(CO)CO [Acyclic diol-Inosine, acyclic diol form of inosine]     > 10 mM
2  Nc1nc2c(ncn2[C@@H](CO)OC(CO)CO)c(=O)[nH]1 [Acyclic diol-Guanosine, acyclic diol form of guanosine]     > 10 mM
3  O=c1[nH]c(=O)c2ncn([C@@H](CO)OC(CO)CO)c2[nH]1 [Acyclic diol-Xanthosine, acyclic diol form of xanthosine]     > 10 mM

# evaluate next
Dear colleague, I am looking for the recorded CC50 of the following compound: Nc1nc2c(ncn2[C@@H](C=O)O[C@@H](C=O)CO)c(=O)[nH]1 [Dialdehyde-Guanosine, dialdehyde form of guanosine]
> 6 mM

----------
Can you tell me CC50 for the items I'm about to list?
Assay: in vitro

> print(dat)
                                   compound  assay.readout  meas.value
1  O=C[C@@H](CO)O[C@H](C=O)n1cnc2c(=O)[nH]c(=O)[nH]c21 [Dialdehyde-Xanthosine, dialdehyde form of xanthosine]           CC50     > 10 mM

# evaluate next
Dear colleague, I am looking for the recorded CC50 of the following compound: O=C[C@@H](CO)O[C@H](C=O)n1cnc2c(=O)[nH]cnc21 [Dialdehyde-Inosine, dialdehyde form of inosine]
> 10 mM

----------
Tested on: Canine coronavirus (CCoV)
Experiment: microbe, parasite or virus in culture
Assay type: cell-based
Conditions: Alphacoronavirus 1, A-72, 48 h, read-out: IC50 (CCoV infection inhibition concentration)
Assay Readout: IC50

> print(dat)
                                   compound  assay.readout  meas.value
1  O=C[C@@H](CO)O[C@H](C=O)n1cnc2c(=O)[nH]c(=O)[nH]c21 [Dialdehyde-Xanthosine, dialdehyde form of xanthosine]           IC50     < 43 µM

For every item in the list below, what is its measured IC50?
1. O=c1[nH]cnc2c1ncn2[C@@H](CO)OC(CO)CO [Acyclic diol-Inosine, acyclic diol form of inosine]
2. O=C[C@@H](CO)O[C@H](C=O)n1cnc2c(=O)[nH]cnc21 [Dialdehyde-Inosine, dialdehyde form of inosine]
3. O=c1[nH]c(=O)c2ncn([C@@H](CO)OC(CO)CO)c2[nH]1 [Acyclic diol-Xanthosine, acyclic diol form of xanthosine]
4. Nc1nc2c(ncn2[C@@H](CO)OC(CO)CO)c(=O)[nH]1 [Acyclic diol-Guanosine, acyclic diol form of guanosine]
5. Nc1nc2c(ncn2[C@@H](C=O)O[C@@H](C=O)CO)c(=O)[nH]1 [Dialdehyde-Guanosine, dialdehyde form of guanosine]

1. < 1270 µM
2. < 45.1 µM
3. < 2600 µM
4. < 2240 µM
5. < 110 µM
